- method: NCI Yeast Anticancer Drug Screen. Data for the mec2-1 strain (AID 157)
- settings: S. cerevisiae mec2-1 strain, at 50.0 µM (retest, dose inferred, filed as 5.0)
This is part of a sample that, as a whole, favours compounds with a hit. Of some 79,000 tested, about 15% had one in any assay. Activity calls are given as the source filed them. Cut-off read from the data, not from the text of the source: active = growth inhibition above about 70%; inactive = the rest.
Hi there, use one of these labels in your reply, thanks! true = active, false = inactive

# lookup: test call for `c1ccc(N=C2c3ccsc3C(=Nc3ccccc3)c3ccsc32)cc1`
true

Give the logged outcome of this assay for the following compound: `CC1=C(C(=O)Nc2cccc(Cl)c2)C(c2ccccc2O)C(C(=O)Nc2cccc(Cl)c2)=C(C)N1`
false

What classification did `C/C=C(/CN/C(=C\[N+](=O)[O-])c1ccccc1)c1ccccc1` end up with in this test?
true

// param item: `Cc1ccc(SSCCCCCS(=O)O)cc1` ; yields the recorded call
false

What did the test return for `CCCCCCCCCCCCCCCCNC(=S)N/C=C(/C#N)C(=O)OC` ?
true

Called result for O=C(NCCN1CCN2Cc3[nH]c4ccccc4c3CC2C1)c1ccc(Cl)cc1 (configuration not stated)
false

Per the records of this test, what outcome belongs to `Cc1ccnc2c1ccc1c(C)ccnc12` ?
true

# lookup: test call for `CC(C)(C)C1=NC(=S)SC2=NC(=O)C3(NN21)c1ccccc1-c1ccccc13`
false

Dear all, I need the recorded test outcome for `C[Si](C)(c1ccccc1)C1CC(=O)CC(=O)C1` , thank you.
false

Would you mind telling me which call this test gave NC(=O)NC(CC(=O)O)C(=O)O (configuration not stated) ?
false

I'd appreciate the recorded outcome for `Cc1c(CCl)c(=O)oc2c(C)c3occ(CCl)c(=O)c3cc12` from this test.
false

I would be grateful if you could indicate the recorded call for O=C1c2ccccc2C(O)(C#Cc2ccccc2)c2cnccc21 (configuration not stated) .
true

###

Please go through the items and note down their growth inhibition.
- method: NCI Yeast Anticancer Drug Screen. Data for the bub3 strain (AID 167)
- settings: S. cerevisiae bub3 mutant strain, at 5.0 µM (retest, dose inferred, filed as 0.5), hits give high values
Compounds without any hit were thinned out: in the full panel of roughly 79,000, 15% have a hit.
Quick note: give the figure in %, leave out the unit.

// field: growth inhibition; key: `Cc1ccc2c(ccc3c[n+]4c5ccccc5ccc4n32)c1` ; value = 93

growth inhibition reported for this compound `CCN(CC)CCOC(=O)CCN1CC2CCC(CC2)C1` : 0

Form: compound = O=C(O)C1C(C(=O)O)C23CC2(C(=O)O)C2(C(=O)O)CCC3=C3CCCC312 (centres undefined) ; growth inhibition = 5

Given item `CCOP(=O)(CCCOc1cc(Cl)c(Cl)cc1Cl)OCC` , the value recorded as its growth inhibition is 6

`Oc1cc2ccccc2c2ccccc12` yielded growth inhibition of 16

What the record says about `C[C@]12CC[C@H](O)C[C@@H]1CC[C@@H]1[C@@H]2C(=O)C[C@]2(C)C3=CC(=O)O[C@H]3C[C@@H]12` : growth inhibition is 11

growth inhibition reading for CC(=O)O[C@H]1CC[C@]2(C)C3=CC[C@]4(C)[C@@H](C(C)=O)CC[C@H]4[C@@]34C=C[C@]2(C1)C1C(=O)OC(=O)C14 (some centres undefined) : 3

For reference, reported growth inhibition for `Cc1ccc(-n2cc(-c3ccc(Cl)cc3)c3c(N)ncnc32)cc1` stands at 14

growth inhibition in this record for `CCN(CC)CCOc1ccc(/C(C#N)=C/c2ccc(C(F)(F)F)cc2)cc1` : 54

growth inhibition reported for this compound `O=C1C(c2ccccc2)=S=C2C=CC=CN12` : -4

GET /value?item= `Cn1cc(NC(=O)c2cc(NC(=O)CCCCCCCCC(=O)Nc3cc(C(=O)Nc4cc(C(=O)NCCC(N)N)n(C)c4)n(C)c3)cn2C)cc1C(=O)NCCC(=N)N` &field=growth inhibition returns 86

The compound listed as `CCOC(=O)C(=O)Nc1ccc(Cl)cc1Cl` has a reported growth inhibition of 10

Query `S=c1[nH]c2ccc(Cl)cc2s1` yields growth inhibition of -19

growth inhibition reading for `Cc1cc(C)nc(/C=C/c2ccc(/C=C/c3cc(C)cc(C)n3)cc2)c1` : -7

The compound identified as `O=C1C=CC(=O)c2c1oc1ccccc21` registered its growth inhibition at 30

compound `CCC(CC)COC(=O)c1ccc(O)c(O)c1` , growth inhibition observed: 1

GET /value?item= `Cc1c(Cl)cccc1N=NC(=O)NNc1cccc(Cl)c1C` &field=growth inhibition returns -12

// growth inhibition lookup, compound = `CSc1ccc2c(c1)S[S@@](=O)N2` , result: 5

// field: growth inhibition; key: `CCOc1ccc2c(c1)nc1ccccc1[n+]2CC` ; value = 6

Record `Cc1cc2c(cc1Cl)Sc1nnc(C)n1S2(=O)=O` . Reported growth inhibition: -12

growth inhibition reported for this compound `COc1ccc(-n2c(=O)c3[nH]c(=S)[nH]c3n(-c3ccc(OC)cc3)c2=S)cc1` : -44

Looking up `COc1ccc(/C=C/c2c[n+]([O-])ccc2[N+](=O)[O-])cc1` , I see its growth inhibition listed as 9

Record O=C(OCC1OC(c2nn[nH]n2)C(OC(=O)c2ccccc2)C1OC(=O)c1ccccc1)c1ccccc1 (centres undefined) . Reported growth inhibition: 17

Quick note, growth inhibition for `C[CH2][Sn]([CH2]C)([O]C(=O)c1c(F)cccc1F)[O][Sn]([CH2]C)([CH2]C)[O]C(=O)c1c(F)cccc1F` landed at 45

# growth inhibition (compound: `O=C(Nc1ccccc1)OCCc1ccc(Br)cc1` ) is -5

Just so you know, measured growth inhibition for O=C1OC(=O)C2C3CCC(C3=C3CCCCC3)C12 (centres undefined) came out at 5

Record `c1ccc(CCc2c[nH]c3ccccc23)cc1` . Reported growth inhibition: -14

compound `Cc1nc2sc3c(c2c2nnnn12)CCCC3` , growth inhibition observed: 3

// `O=C(C[n+]1ccc2ccccc2c1)c1ccc(-c2ccccc2)cc1` : growth inhibition value = -5

`CCOC(=O)CNC(=O)Sc1ccc(C(C)(C)C)cc1C` yielded growth inhibition of 14

Consider `O=C1c2ccccc2C(=O)c2sc(Nc3cccc(Cl)c3)nc21` . Its measured growth inhibition is 98

Data point: `O=C(O)/C(=C\c1ccc(F)cc1)c1ccccc1` ; growth inhibition = 3

The reported growth inhibition of the compound `Oc1ccc(CNCc2ccccc2)c2cccnc12` was -5

Note to self: growth inhibition recorded for `CC12CC(Br)(Br)C(=O)C3C1CCCC32` was 74

Just so you know, measured growth inhibition for CCCCN(CCCC)Cc1ccc(NC(C(=O)c2ccccc2)c2ccccc2)cc1 (centres undefined) came out at 0

Kindly note the recorded growth inhibition for C1C2OC2C2C1C1CC2C2OC12 (centres undefined) , which is 1

Summary for this compound, `CC(C)Cc1ncc(CC(C)C)n(O)c1=O` : growth inhibition is 10

What the record says about `Cc1ccc(N=C(N)NN=C(c2ccc(Cl)cc2)c2ccc(Cl)cc2)cc1` : growth inhibition is 6

So for `CNC(=S)N/N=C/c1nccc(-c2ccccc2)c1C` , the logged growth inhibition turned out to be 2

Lab note: `O=C1/C(=C/c2ccccc2)CCCc2ccccc21` gave growth inhibition of 10

// field: growth inhibition; key: `N#[N+]c1ccc2c(S(=O)(=O)Oc3ccc(C(=O)c4ccccc4)c(OS(=O)(=O)c4cccc5c([O-])c([N+]#N)ccc45)c3)cccc2c1[O-]` ; value = -3

Data point: `CC(=O)/C(=C\c1ccccc1Cl)C(=O)CCN(C)C` ; growth inhibition = 7

The value of growth inhibition measured for the compound `Cc1ccc(-c2c(C#N)c(-c3ccccc3)n(NS(=O)(=O)c3ccc(C)cc3)c(=O)c2C#N)cc1` turned out to be 51

The compound C/C=C(\C)C(=O)OC1C(C)C2(O)C(C=C(CO)CC3(O)C(=O)C(C)=CC32)C2C(C)(C)C12OC(=O)CCCCCCCCC (centres undefined) showed growth inhibition equal to 33
